# maps each entry to its dF/F (Fmax−Fbasal)/Fbasal, CHO-CRE Contig 88:1, np
Test system: Contig 88:1
Assay: Selectivity check: Ca2+ signal (Flipr) in CHO-CRE cells transfected with Contig 88:1
Assay type: cell-based, human
Details: not primed
Please respond with just the number, no unit label.

compound="CC/C=C\\C/C=C\\C/C=C\\C/C=C\\C=C\\C(O)CCCC(=O)O (racemic) [Cpd 5, (±)5-HEPE]" observed_value=0.01

Can you share its dF/F (Fmax−Fbasal)/Fbasal, CHO-CRE Contig 88:1, np? I mean this compound: CCCCC/C=C\C/C=C\C/C=C\C=C\[C@@H](O)CCCC(=O)O [Cpd 1, 5(S)-HETE]
0.00

Would you kindly share the measured dF/F (Fmax−Fbasal)/Fbasal, CHO-CRE Contig 88:1, np for CCCCC/C=C\C/C=C\C/C=C\C/C=C\CCCC(=O)OC(CO)COC(=O)CCCCCCCCCCCCCCCCC (stereo not shown) ?
−0.01
